Test system: Hs-578T
Assay: NCI tumour cell line growth inhibition, 48 h
Activity calls are given as the source filed them. No stated cut-off is given here; in the data, active = GI50 up to about 1.1 µM and inactive = higher.
metric: GI50

Task: Recorded GI50 of C=CCNC(=O)NNC(O)(C(=O)OCC)C(F)(F)F (stereo not given) , please.
Output: > 100 µM (inactive)

Task: What GI50 value was documented for this compound, `O=S(=O)(O)c1cc(S(=O)(=O)O)c2c(/N=N/c3ccccc3)c(O)ccc2c1` ?
Output: > 100 µM (inactive)

Task: I am curious: what GI50 value has been reported for `CO/C(C)=N/CCC1=CCCCC1` ?
Output: > 100 µM (inactive)

Task: Give the measured GI50 of `OCCCN(CCc1ccc(Cl)c(Cl)c1)CCN1CCCC1` .
Output: 38.8 µM (inactive)

Task: Could you tell me which GI50 is on file for `COc1cc(NC(C)=O)ccc1C(=O)N/N=C/c1ccco1` ?
Output: > 100 µM (inactive)

---

System: DLD-1
Assay: NCI tumour cell line growth inhibition, 48 h
Calls of active or inactive are those of the source. Cut-off read from the data, not from the text of the source: active = GI50 up to about 1.1 µM and inactive = higher.
What GI50 was measured for each of the following?

Task: Reported GI50, molecule `C/C(CC(=O)Nc1ccc(C)c(C)c1)=N\N(c1ccccc1)c1ccccc1` : ____
Output: 55.7 µM (inactive)

Task: // GI50 lookup, key: CC1CC(=O)C2CC(CO)=CCCC2C1(C)CC/C(=C/CO)CO (stereo unspecified)
Output: > 100 µM (inactive)

Task: What measured GI50 goes with `CCCn1cc2c(SC)nc(SC)nc2n1` ?
Output: > 100 µM (inactive)

Task: Query (molecule): `C1=CC=C2NCCOCC/N=C3/C=CC=CC=C3NCCOCC/N=C\2C=C1` ; field requested: GI50
Output: > 100 µM (inactive)

Task: # lookup: GI50 of O=C(c1ccccc1)c1c(CC(O)c2ccccn2)n(C(=O)c2ccccc2)c2ccccc12 (stereo unspecified)
Output: 26.9 µM (inactive)

Task: Reported GI50, molecule `CCOC(=O)NN1C(=O)C(=P(c2ccccc2)(c2ccccc2)c2ccccc2)C(C(=O)OC)=C1C` : ____
Output: > 100 µM (inactive)

---

Test system: DU-145
Experiment: NCI tumour cell line growth inhibition, 48 h
Active and inactive are the calls of the source. Cut-off read from the data, not from the text of the source: active = GI50 up to about 1.1 µM and inactive = higher.
metric: GI50

Task: Look up GI50 for this compound: `C=C1[C@@](C)([C@@H]2CCCS2)[C@H]2C(C)=C[C@]1(C)n1c(=O)n(-c3ccccc3)c(=O)n12`
Output: > 100 µM (inactive)

Task: // lookup GI50 for `Cc1ccc(S(=O)(=O)N2CCN(S(=O)(=O)c3ccc(C)cc3)CCN(S(=O)(=O)c3ccc(C)cc3)Cc3cc(C#N)c(C#N)cc3CN(S(=O)(=O)c3ccc(C)cc3)CC2)cc1`
Output: > 100 µM (inactive)

Task: Any idea what its GI50 is? The compound is `O=C1c2ccccc2-c2nc(-c3ccccc3)cc3c2c1nc1ccccc13`
Output: 13.9 µM (inactive)

Task: I am curious: what GI50 value has been reported for OCC1OC(n2nc(-c3ccccc3)nc2-c2cnccn2)C(O)C(O)C1O (configuration not stated) ?
Output: > 100 µM (inactive)

Task: Which value of GI50 has been reported for CN1N=C(c2ccncc2)OC1c1cccc(F)c1 (configuration not stated) in the records?
Output: > 100 µM (inactive)

Task: Dear colleague, I am looking for the recorded GI50 of the following compound: COP(=O)(O)C(N)Cc1c[nH]c2ccccc12 (configuration not stated)
Output: > 100 µM (inactive)

Task: Which GI50 is listed for `Cc1cc(O)c(C(C)C)cc1C(=S)Nc1ccc(Cl)cc1` ?
Output: 17.7 µM (inactive)

Task: // query GI50 value for entry `Cn1nc(-c2ccc(S(=O)(=O)N/C(=N/c3ccc(Cl)cc3)NN)s2)cc1C(F)(F)F`
Output: 17.1 µM (inactive)

Task: Please give the measured GI50 for this compound: `COc1ccccc1C(=O)Nc1ccc(Cl)c(C(=O)OC(C)C)c1`
Output: 49.2 µM (inactive)

Task: Would you kindly share the measured GI50 for O=C(c1ccco1)C1CC(c2ccc3ccccc3c2O)=NN1 (configuration not stated) ?
Output: > 100 µM (inactive)

Task: Suppose we examine the compound `COC(=O)[C@@H](NC1(c2ccccc2)c2ccccc2-c2ccccc21)[C@H](OC(=O)[C@H]1CCCN1S(=O)(=O)c1ccccc1)C(=O)OC` ; what GI50 value has been reported?
Output: > 100 µM (inactive)

Task: Fill in the blank: the reported GI50 of CNC(=O)OCC1C2=C(C(=O)C(C)=C(N)C2=O)N2CC3C(N3C)C12OC (configuration not stated) is ____.
Output: 2.47 µM (inactive)
